Settings: in methanol, 315.65 K
MEASURE: solubility (mole fraction)
Number, no unit, nothing else.

// lookup solubility (mole fraction) for `O=C1c2cccc(Cl)c2C(=O)N1c1ccccc1`
0.000533

---

Details: in n-propanol, 320.65 K
MEASURE: solubility (mole fraction)
Number, no unit, nothing else.

// lookup solubility (mole fraction) for `O=C1c2cccc(Cl)c2C(=O)N1c1ccccc1`
0.000917

---

Settings: in acetonitrile, 323.15 K
MEASURE: solubility (mole fraction)
Number, no unit, nothing else.

// lookup solubility (mole fraction) for `O=C1c2cccc(Cl)c2C(=O)N1c1ccccc1`
0.00655

---

Settings: in acetone, 298.15 K
MEASURE: solubility (mole fraction)
Number, no unit, nothing else.

// lookup solubility (mole fraction) for `O=C1c2cccc(Cl)c2C(=O)N1c1ccccc1`
0.00429

---

Settings: in isopropanol, 320.65 K
MEASURE: solubility (mole fraction)
Number, no unit, nothing else.

// lookup solubility (mole fraction) for `O=C1c2cccc(Cl)c2C(=O)N1c1ccccc1`
0.000445

---

Conditions: in n-propanol, 315.65 K
MEASURE: solubility (mole fraction)

// lookup solubility (mole fraction) for `O=C1c2cccc(Cl)c2C(=O)N1c1ccccc1`
0.000747

---

Conditions: in n-propanol, 300.65 K
MEASURE: solubility (mole fraction)
Number, no unit, nothing else.

// lookup solubility (mole fraction) for `O=C1c2cccc(Cl)c2C(=O)N1c1ccccc1`
0.000353

---

Conditions: in n-butanol, 310.65 K
MEASURE: solubility (mole fraction)
Number, no unit, nothing else.

// lookup solubility (mole fraction) for `O=C1c2cccc(Cl)c2C(=O)N1c1ccccc1`
0.000535

---

Settings: in methanol, 318.15 K
MEASURE: solubility (mole fraction)
Number, no unit, nothing else.

// lookup solubility (mole fraction) for `O=C1c2cccc(Cl)c2C(=O)N1c1ccccc1`
0.00059

---

Details: in acetonitrile, 320.65 K
MEASURE: solubility (mole fraction)
Number, no unit, nothing else.

// lookup solubility (mole fraction) for `O=C1c2cccc(Cl)c2C(=O)N1c1ccccc1`
0.00603

---

Settings: in methanol, 293.15 K
MEASURE: solubility (mole fraction)
Number, no unit, nothing else.

// lookup solubility (mole fraction) for `O=C1c2cccc(Cl)c2C(=O)N1c1ccccc1`
0.000194

---

Conditions: in n-propanol, 293.15 K
MEASURE: solubility (mole fraction)
Number, no unit, nothing else.

// lookup solubility (mole fraction) for `O=C1c2cccc(Cl)c2C(=O)N1c1ccccc1`
0.000226

---

Details: in n-butanol, 320.65 K
MEASURE: solubility (mole fraction)

// lookup solubility (mole fraction) for `O=C1c2cccc(Cl)c2C(=O)N1c1ccccc1`
0.000821

---

Conditions: in methanol, 288.15 K
MEASURE: solubility (mole fraction)

// lookup solubility (mole fraction) for `O=C1c2cccc(Cl)c2C(=O)N1c1ccccc1`
0.000147

---

Settings: in isopropanol, 313.15 K
MEASURE: solubility (mole fraction)

// lookup solubility (mole fraction) for `O=C1c2cccc(Cl)c2C(=O)N1c1ccccc1`
0.000305

---

Conditions: in isobutanol, 300.65 K
MEASURE: solubility (mole fraction)
Number, no unit, nothing else.

// lookup solubility (mole fraction) for `O=C1c2cccc(Cl)c2C(=O)N1c1ccccc1`
0.000221

Hey, just so you know, these numbers are from BigSolDB 2.1.
